Here the recorded EC50 in PBMC Assay 2 (precomplexed IL-18BP), IFNγ is given for each entry.
- testedTarget: T1, human IL-18BP (interleukin-18 binding protein, isoform A) (human, UniProt O95998 31-194)
- T1 sequence: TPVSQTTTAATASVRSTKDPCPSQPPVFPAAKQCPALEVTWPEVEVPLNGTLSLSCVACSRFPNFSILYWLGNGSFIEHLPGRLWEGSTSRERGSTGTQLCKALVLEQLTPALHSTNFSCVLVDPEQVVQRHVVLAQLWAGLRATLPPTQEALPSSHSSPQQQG
- assayText: cell-based or functional assay
measurementLabel: EC50 in PBMC Assay 2 (precomplexed IL-18BP), IFNγ (nM)

| binder | unitAnnotation | reportedResult |
| --- | --- | --- |
| SA322a (antibody, human IgG1, V domains shown, humanized; human IgG1 (suffix a), kappa) VH: QVQLQESGPGLVKPSQTLSLTCTVSGYSITQDYNAHWIRQPPGKGLEWIGYIHYSGQTNYNPSLKSRVTISRDTSKNQFSLKLSSVTAADTAVYYCARNYGSIYVNYFDYWGQGTLVTVSS VL: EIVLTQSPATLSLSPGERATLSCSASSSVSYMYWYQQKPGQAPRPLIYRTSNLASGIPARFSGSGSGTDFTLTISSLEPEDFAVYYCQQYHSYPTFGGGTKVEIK | nM | 0.53 |
| SA308a (antibody, human IgG1, V domains shown) VH: QVQLQESGPGLVKPSQTLSLTCTVSGYSITSDYNAHWIRQPPGKGLEWIGYIHYSGATNYNPSLKSRVTISRDTSKNQFSLKLSSVTAADTAVYYCARNYGSIYVNYFDYWGQGTLVTVSS VL: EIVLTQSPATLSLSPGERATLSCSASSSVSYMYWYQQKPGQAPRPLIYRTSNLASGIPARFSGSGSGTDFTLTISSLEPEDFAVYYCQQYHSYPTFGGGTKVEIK | nM | 2.2 |
